Sourced from paper PMC5233613

system-tested: LC3B K51A (human, UniProt Q9GZQ8 1-120, K51A)
method: ITC; MicroCal iTC200, 25 °C; proteins 0.25 mmol/L and peptides 3 mmol/L, dialyzed against buffer B (20 mmol/L Tris-HCl, 200 mmol/L NaCl, 1 mmol/L EDTA, pH 8.0); single binding site model
details: both partners purified
Non-standard residues stand in square brackets, D forms with d. No end group written: not given here. pS = N[C@@H](COP(=O)(O)O)C(=O)O

| binder | Kd (µM) |
| --- | --- |
| DYESDDD[pS]YEVLDLTE (also called FUNDC1 pS17; FUNDC1 pS17 peptide; source: synthetic peptide (GL Biochem, Shanghai)) [FUNDC1 LIR peptide 10-25 phosphorylated at Ser17] | 5.92 |
